System: Voltage-dependent L-type calcium channel subunit alpha-1D (CaV1.3) ICDI/IQ interaction
run_description: Disruptors of the CACNA1D IQ motif to Ca2+-dependent inactivation inhibitor domain association, primary screening, Förster resonance energy transfer in intact living cells, one concentration (AID 743397);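 also: 0% = median of the neutral control wells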
experimental_parameters: HEK cells, CFP/YFP FRET ICDI-IQ, plate reader, 10 min; at 12.3 µM; stronger effect = higher value; percent FRET-ratio fall versus neutral wells
The whole screen tested about 340,000 compounds, of which about 330 (0.097%) were called active. What follows is part of a selection rich in actives, with near analogues and random picks from the rest.
readout_type: inhibition

> print(dat)
                                   compound     recorded.value
1  CSc1ccc(Oc2cccc3c2S(=O)(=O)N([C@H](C)c2ccccc2)C[C@@H](COCc2ccccc2)O3)cc1C  -9.54% (inactive)
2    COc1cncc(-c2cnc3sc(NCCc4ccccn4)nn23)c1  -4.67% (inactive)
3  Cc1ccc(C)c(CN2CCC(CNC(=O)C3CCCN(c4ncnc5c4nc4n5CCCCC4)C3)CC2)c1 (configuration not stated)  -13.7% (inactive)
4  N#Cc1cccc(C(=O)NCC2CCN(C(=O)C(=O)c3cc4ccccc4o3)CC2)c1  -8.07% (inactive)
5  C[C@H](CO)N1C[C@H](C)[C@@H](CN(C)C(=O)Nc2ccccc2F)OCc2cn(nn2)CCCC1=O  -4.14% (inactive)
6  O=C(N[C@H](Cc1ccccc1)C(=O)N1CCCN(Cc2cccs2)CC1)[C@H]1O[C@@H](n2ccc(=O)[nH]c2=O)[C@H](O)[C@@H]1O  -3.41% (inactive)
7       COc1ccccc1CCn1cnc(-c2ccccc2)c1C(C)C  -7.51% (inactive)

###

Test system: Voltage-dependent L-type calcium channel subunit alpha-1D (CaV1.3) ICDI/IQ interaction
run_description: Disruptors of the CACNA1D IQ motif to Ca2+-dependent inactivation inhibitor domain association, primary screening, Förster resonance energy transfer in intact living cells, one concentration (AID 743397);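 also: 0% = median of the neutral control wells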
experimental_parameters: HEK cells, CFP/YFP FRET ICDI-IQ, plate reader, 10 min; at 12.3 µM; stronger effect = higher value; percent FRET-ratio fall versus neutral wells
About 330 (0.097%) of roughly 340,000 compounds were called active. The list comes from a sample in which actives are over-represented; it also holds close analogues and randomly drawn compounds.
Let's look at some compounds and their measured inhibition.
readout_type: inhibition

> print(dat)
                                   compound     recorded.value
1  COC(=O)[C@]12C[C@H](CC(=O)NCCc3ccccc3OC)C(=O)N(Cc3ccccc3)C1=C[C@H](C(C)C)O[C@@H]2C1CC1  -8.67% (inactive)
2  CCOC(=O)CNC(=O)N(C)[C@H]1C[C@H]2c3[nH]c4c(-c5ccc6c(c5)OCO6)cccc4c3CCN2C(=O)[C@H]1[C@H](C)O  -2.88% (inactive)
3  COC(=O)C1=C(C)N(Cc2cccc(C(F)(F)F)c2)C(=NCc2cccc(C(F)(F)F)c2)NC1c1ccccc1C(F)(F)F (stereo not given)     -2% (inactive)
4  COC(=O)c1ccc2ccccc2c1OC1OC(CO)C(O)C(O)C1NC(C)=O (stereo not given)  -1.34% (inactive)
5  CCCCCCCCCOC1OC(CO)C(O)C(O)C1NC(C)=O (stereo not given)  -5.79% (inactive)

###

Let's look at some molecules and their measured inhibition.
Test system: Voltage-dependent L-type calcium channel subunit alpha-1D (CaV1.3) ICDI/IQ interaction
run_description: Disruptors of the CACNA1D IQ motif to Ca2+-dependent inactivation inhibitor domain association, primary screening, Förster resonance energy transfer in intact living cells, one concentration (AID 743397);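 also: 0% = median of the neutral control wells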
experimental_parameters: HEK cells, CFP/YFP FRET ICDI-IQ, plate reader, 10 min; at 12.3 µM; stronger effect = higher value; percent FRET-ratio fall versus neutral wells
The campaign covered roughly 340,000 compounds. About 330 (0.097%) were called active. For the sample, actives were picked, then their nearest neighbours and some compounds at random.
readout_type: inhibition (%)

> print(dat)
                          compound.structure  readout.type  recorded.value
 1  CCCCCCCCN1C(=O)[C@@H](CC(=O)N2CCN(C(=O)OCC)CC2)C[C@@]2(C(=O)OC)C1=C[C@H](C1CCCC1)O[C@@H]2C    inhibition           -9.25
 2      COC(=O)Nc1nc2ccc(C(=O)C3CC3)cc2[nH]1    inhibition           -11.2
 3  COC(=O)c1c(-c2ccc(OC)cc2)c2c(c3c4cc(OC)ccc4n(S(=O)(=O)c4ccc(F)cc4)c13)C(=O)N(C)C2    inhibition           -5.34
 4  COc1cccc(NC(=O)N(C)C[C@@H]2OCc3cn(nn3)CCCC(=O)N([C@@H](C)CO)C[C@H]2C)c1    inhibition           -4.88
 5    CCOCCCNc1c(CC)c(C)c(C#N)c2nc3ccccc3n12    inhibition              61
 6  Nc1ncnc2c1ncn2[C@@H]1O[C@H](C(=O)N[C@@H](CCc2ccccc2)C(=O)N2CCCN(Cc3cccs3)CC2)[C@@H](O)[C@H]1O    inhibition           -9.97
 7         Cc1cc(NC(C)C)n2c(nc3ccccc32)c1C#N    inhibition          -0.654
 8  CCS(=O)(=O)c1ccc(O)c(NC(=O)COc2ccc(Cl)cc2)c1    inhibition           -1.51
 9  Cc1nc2c(OCc3ccc(Cl)cc3Cl)cccn2c1N(C)CC1CC1    inhibition           -6.39
10     COc1ccc(CNS(=O)(=O)c2cc(Br)ccc2Br)cc1    inhibition           -5.62
11  CCN1C(=O)N[C@@H]2C[C@H](C(=O)N3CCCC3)[C@H](C)[C@H](c3ccccc3)C[C@@H]21    inhibition           -3.87
12  CC(C)C[C@H](NC(=O)CC1CCCC1)C(=O)N1CCC[C@H]1C(=O)NCc1ccccc1    inhibition           -8.63
13     CC(=O)Nc1ccc(OC(=O)COc2ccc(Br)cc2)cc1    inhibition           -4.58
